Provenance of the data: patent US20240245691A1

Test system: cryo-preserved hepatocytes
Test: Hepatocyte stability assay, mouse
Type: in vitro ADME
Details: mouse, hepatocytes, 10 μM
Recorded T½ for the following compounds
measurement.label: T½ (h)

C=C(CC(=O)NC(c1ccc(C(F)(F)F)cc1)C1CC1)C(=O)O (stereo not shown) : 5.92
C=C(C(=O)O)C(C)C(=O)N[C@@H](C)c1ccc(C(F)(F)F)cc1 (single isomer, unassigned; isomer 2) : 7.62
C=C(C(=O)O)C(C)C(=O)NC(C)(C)c1ccc(C(F)(F)F)cc1 (single isomer, unassigned) [Example 53] : 4.78

----------
Recorded Clint for the following compounds
Test system: cryo-preserved hepatocytes
Assay: Hepatocyte stability assay, mouse
Type: in vitro ADME
Conditions: mouse, hepatocytes
measurement.label: Clint (μL min^−1 10^−6 cells)

C=C(C(=O)O)C(C)C(=O)N[C@@H](C)c1ccc(C(F)(F)F)cc1 (single isomer, unassigned; isomer 2) [Example 55] : 3
C=C(CC(=O)NC(c1ccc(C(F)(F)F)cc1)C1CC1)C(=O)O (centres unmarked) [Example 23] : 4
C=C(CC(=O)N[C@@H](C)c1ccc(Br)cc1)C(=O)O : 7
C=C(CC(=O)N[C@@H](C)c1ccc(C(F)(F)F)c(F)c1)C(=O)O : 4
CC(C)/C=C(\CC(=O)N[C@@H](C)c1ccc(C(F)(F)F)cc1)C(=O)O : 6
C=C(CC(=O)NCc1ccc(Cl)cc1)C(=O)OC1CCN(S(C)(=O)=O)CC1 : 31
C=C(CC(=O)NC(C)(C)c1ccc(C(F)(F)F)cc1)C(=O)O : 3
C=C(CC(=O)N[C@@H](C)c1ccc(C(F)(F)F)cn1)C(=O)OCCO : 24
C=C(CC(=O)NC1(c2ccc(C(F)(F)F)cc2)CCC1)C(=O)O : 3
C=C(CC(=O)N[C@@H](C)c1ccc(C(F)(F)F)cn1)C(=O)OC1CS(=O)(=O)C1 : 205
C=C(CC(=O)N[C@@H](C)c1ccc(C(F)(F)F)cc1)C(=O)OCCNS(C)(=O)=O : 153
CC(C)C/C=C(\CC(=O)N[C@@H](C)c1ccc(C(F)(F)F)cc1)C(=O)O : 30
C=C(CC(=O)NC1(c2ccc(C(F)(F)F)cc2)CCC1)C(=O)OC1CCN(S(C)(=O)=O)CC1 : 619
C=C(C(=O)O)C(C)C(=O)NC(C)(C)c1ccc(C(F)(F)F)cc1 (single isomer, unassigned) : 5

----------
Test system: cryo-preserved hepatocytes
Test: Hepatocyte stability assay, human
Format: in vitro ADME
Details: human, hepatocytes
Recorded Clint for the following compounds
measurement.label: Clint

C=C(C(=O)O)C(C)C(=O)NC(C)(C)c1ccc(C(F)(F)F)cc1 (single isomer, unassigned) [Example 53] : <3 μL min^−1 10^−6 cells
C=C(CC(=O)N[C@@H](C)c1ccc(C(F)(F)F)cc1)C(=O)O : 4 μL min^−1 10^−6 cells
C=C(C(=O)O)C(C)C(=O)N[C@@H](C)c1ccc(C(F)(F)F)cc1 (single isomer, unassigned; isomer 2) [Example 55] : <3 μL min^−1 10^−6 cells
C=C(CC(=O)N[C@@H](C)c1ccc(C(F)(F)F)cc1)C(=O)OCCN1CCOCC1 : 39 μL min^−1 10^−6 cells
C=C(CC(=O)N[C@@H](C)c1ccc(C(F)(F)F)cc1)C(=O)OCCNS(C)(=O)=O : 21 μL min^−1 10^−6 cells

----------
Recorded IC50 for the following molecules
System: IL-1β
Test: THP-1 AlphaLISA IL-1β cytokine assay (differentiated THP-1 cells)
Type: cell-based
Conditions: differentiated THP-1 cells, LPS 24 hr then Nigericin 1 hour; read-out: IL-1β (IC50)
measurement.label: IC50 (µM)

C=C(CC(=O)OCCCCCCCC)C(=O)O [4-octyl itaconate, 4-Octyl itaconate, reference compound] : 38.3
C=C(CC(=O)NC(c1ccc(C(F)(F)F)cc1)C1CC1)C(=O)O (centres unmarked) : 13.4
C=C(C(=O)O)C(C)C(=O)N[C@@H](C)c1ccc(C(F)(F)F)cc1 (single isomer, unassigned; isomer 2) : 18.9
C=C(C(=O)O)C(C)C(=O)NC(C)(C)c1ccc(C(F)(F)F)cc1 (single isomer, unassigned; isomer 1) [Example 52] : 18.7
C=C(C(=O)O)C(C)C(=O)NC(C)(C)c1ccc(C(F)(F)F)cc1 (single isomer, unassigned) [Example 53] : 9.3

----------
Test: Hepatocyte stability assay, mouse
Assay type: in vitro ADME
Details: mouse, hepatocytes, T½
Classify: Criterion met when half-life at 10 μM is strictly less than 2 h; Criterion not met when half-life at 10 μM is not.

C=C(CC(=O)N[C@@H](C)c1ccc(C(F)(F)F)cc1)C(=O)OCCN1CCOCC1 [Example 29] : Criterion met
C=C(CC(=O)N[C@@H](C)c1ccc(C(F)(F)F)cn1)C(=O)OCCO [Example 34] : Criterion met
C=C(CC(=O)N[C@@H](C)c1ccc(C(F)(F)C(F)(F)F)cc1)C(=O)O [Example 20] : Criterion met
C/C=C(\CC(=O)N[C@@H](C)c1ccc(C(F)(F)F)cc1)C(=O)O [Example 42] : Criterion not met
C[C@H](NC(=O)C/C(=C\CCc1ccccc1)C(=O)O)c1ccc(C(F)(F)F)cc1 [Example 46] : Criterion met
C=C(C(=O)O)C(C)(C)C(=O)N[C@@H](C)c1ccc(C(F)(F)F)cc1 [Example 50] : Criterion met
C=C(CC(=O)N[C@@H](C)c1ccc(C(F)(F)F)cc1)C(=O)O [Example 3] : Criterion not met
C=C(CC(=O)NC1(c2ccc(C(F)(F)F)cc2)COC1)C(=O)O [Example 13] : Criterion not met
C=C(CC(=O)NC1(c2ccc(C(F)(F)F)cn2)CCC1)C(=O)O [Example 39] : Criterion not met

----------
Assay: Hepatocyte stability assay, human
Type: in vitro ADME
Details: human, hepatocytes, T½
measurement.label: half-life at 10 μM

C=C(CC(=O)N[C@@H](C)c1ccc(C(F)(F)F)cc1)c1nnn[nH]1 : > 7.67 h
C/C=C(/CC(=O)N[C@@H](C)c1ccc(C(F)(F)F)cc1)C(=O)O : > 7.67 h
CC/C=C(\CC(=O)N[C@@H](C)c1ccc(C(F)(F)F)cc1)C(=O)O : > 7.67 h

----------
Recorded Clint for the following molecules
System: cryo-preserved hepatocytes
Test: Hepatocyte stability assay, human
Format: in vitro ADME
Conditions: human, hepatocytes
measurement.label: Clint (μL min^−1 10^−6 cells)

C=C(CC(=O)N[C@@H](C)c1ccc(Br)cc1)C(=O)O [Example 16] : 6
C=C(CC(=O)N[C@@H](C)c1ccc(C(F)(F)F)cn1)C(=O)OC1CS(=O)(=O)C1 [Example 33] : 151
C=C(CC(=O)N[C@@H](C)c1ccc(C(F)(F)F)cc1)C(=O)OCCN(C)C [Example 26] : 62
C[C@H](NC(=O)C/C(=C\CCc1ccccc1)C(=O)O)c1ccc(C(F)(F)F)cc1 [Example 46] : 7
C=C(CC(=O)N[C@@H](C)c1ccc(C(F)(F)F)cn1)C(=O)OC1CCN(S(C)(=O)=O)CC1 [Example 31] : 11
C=C(CC(=O)NC1(c2ccc(C(F)(F)F)cc2)COC1)C(=O)O [Example 13] : 3
C=C(CC(=O)NC1(c2ccc(C(F)(F)F)cc2)CCC1)C(=O)OC1CCN(S(C)(=O)=O)CC1 [Example 9] : 116
C=C(CC(=O)N[C@@H](C)c1ccc(SC(F)(F)F)cc1)C(=O)O [Example 17] : 8
C=C(CC(=O)NCc1ccc(Cl)cc1)C(=O)OC1CCN(S(C)(=O)=O)CC1 [Example 1] : 12
C=C(CC(=O)N[C@@H](C)c1ccc(C(F)(F)F)cn1)C(=O)OC1CN(S(C)(=O)=O)C1 [Example 37] : 50
C=C(CC(=O)N[C@@H](C)c1ccc(C(F)(F)F)cc1)C(=O)OC1(C)COC1 [Example 28] : 80
C=C(CC(=O)N[C@@H](C)c1ccc(C(F)(F)F)cn1)C(=O)OC1CCN(C)CC1 [Example 32] : 12
C[C@H](NC(=O)C/C(=C/c1ccccc1)C(=O)O)c1ccc(C(F)(F)F)cc1 [Example 48] : 7

----------
Recorded Clint for the following molecules
Test system: cryo-preserved hepatocytes
Test: Hepatocyte stability assay, mouse
Assay type: in vitro ADME
Conditions: mouse, hepatocytes
measurement.label: Clint

C=C(CC(=O)N[C@@H](C)c1ccc(C(F)(F)F)cc1)C(=O)OC1CCN(S(C)(=O)=O)CC1 : 99 μL min^−1 10^−6 cells
C=C(CC(=O)N[C@@H](C)c1ccc(C(F)(F)F)cc1)C(=O)OC1(C)COC1 : >460 μL min^−1 10^−6 cells
C/C=C(\CC(=O)N[C@@H](C)c1ccc(C(F)(F)F)cc1)C(=O)O : 3 μL min^−1 10^−6 cells
C=C(C(=O)O)C(C)C(=O)N[C@@H](C)c1ccc(C(F)(F)F)cc1 (single isomer, unassigned; isomer 1) [Example 54] : 4 μL min^−1 10^−6 cells
C=C(CC(=O)NC1CCc2cc(C(F)(F)F)ccc21)C(=O)O (stereo not shown) : <3 μL min^−1 10^−6 cells
C=C(CC(=O)N[C@@H](C)c1ccc(C(F)(F)F)cn1)C(=O)OC1CN(S(C)(=O)=O)C1 : 104 μL min^−1 10^−6 cells
C=C(CC(=O)N[C@@H](C)c1ccc(C(F)(F)F)cc1)C(=O)OC1CS(=O)(=O)C1 : 215 μL min^−1 10^−6 cells
C=C(CC(=O)N[C@@H](C)c1ccc(C(F)(F)C(F)(F)F)cc1)C(=O)O : 38 μL min^−1 10^−6 cells
C=C(CC(=O)N[C@@H](C)c1ccc(C(F)(F)F)cn1)C(=O)OC1CN(C(C)=O)C1 : 61 μL min^−1 10^−6 cells
C=C(CC(=O)NC1(c2ccc(C(F)(F)F)cn2)CCC1)C(=O)O : <3 μL min^−1 10^−6 cells
C=C(CC(=O)NC(c1ccc(C(F)(F)F)cc1)C1CC1)C(=O)O (stereo not shown) [Example 10] : <3 μL min^−1 10^−6 cells
C[C@H](NC(=O)C/C(=C\CCc1ccccc1)C(=O)O)c1ccc(C(F)(F)F)cc1 : 37 μL min^−1 10^−6 cells
C=C(CC(=O)NC1(c2ccc(C(F)(F)F)cc2)COC1)C(=O)O : <3 μL min^−1 10^−6 cells
